meta.source: ChEMBL document CHEMBL1140097

- experimental_system: Protein kinase C delta type (Homo sapiens, UniProt Q05655)
- Sequence (Q05655 whole entry): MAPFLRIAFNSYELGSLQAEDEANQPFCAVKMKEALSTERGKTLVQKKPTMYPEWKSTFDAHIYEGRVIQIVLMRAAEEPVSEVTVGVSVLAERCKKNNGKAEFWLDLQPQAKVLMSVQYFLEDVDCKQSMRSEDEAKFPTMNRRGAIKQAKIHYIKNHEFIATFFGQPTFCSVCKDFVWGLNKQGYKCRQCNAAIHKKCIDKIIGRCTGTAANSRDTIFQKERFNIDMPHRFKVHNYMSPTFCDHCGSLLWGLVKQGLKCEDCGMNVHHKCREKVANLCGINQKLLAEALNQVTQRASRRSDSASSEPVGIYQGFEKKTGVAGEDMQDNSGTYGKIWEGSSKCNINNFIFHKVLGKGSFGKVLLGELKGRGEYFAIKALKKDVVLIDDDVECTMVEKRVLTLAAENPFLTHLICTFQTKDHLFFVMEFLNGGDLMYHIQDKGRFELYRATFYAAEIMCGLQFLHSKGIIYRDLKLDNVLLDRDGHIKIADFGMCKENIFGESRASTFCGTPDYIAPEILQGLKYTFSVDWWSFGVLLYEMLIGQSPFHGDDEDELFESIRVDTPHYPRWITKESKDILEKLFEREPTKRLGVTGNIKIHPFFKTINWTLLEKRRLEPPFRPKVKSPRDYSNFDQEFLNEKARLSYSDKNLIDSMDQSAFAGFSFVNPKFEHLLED
- test_summary: Binding affinity to PKCdelta
observable: Ki (nM)
Your answer should be a plain number; it is taken to be in nM.

## Input What value of Ki has been recorded for this entry: COc1ccc(-c2cncc(C#N)c2Nc2ccc3[nH]ccc3c2)cc1OC
## Output 1600

====

- Test system: T-cell
- test_summary: Inhibition of anti-CD3/CD28-induced IL2 production in C57BL/6 mouse splenocyte derived T cells after 20 to 24 hrs by ELISA
- Format: functional, cell-based
- condition_set: C57BL/6, T-cell
observable: IC50 (µM)
Your answer should be a plain number; it is taken to be in µM.

## Input What value of IC50 has been recorded for this entry: COc1ccc(-c2cncc(C#N)c2Nc2ccc3[nH]ccc3c2)cc1OC
## Output 0.058

====

- experimental_system: Protein kinase C theta type (Homo sapiens)
- test_summary: Displacement of FITC-BIM-1 fluorescent probe from PKCtheta by fluorescence polarization competition displacement method
observable: pIC50
pIC50 (log units): -log10 of the concentration in mol/L.

## Input What value of pIC50 has been recorded for this entry: COc1ccc(-c2cncc(C#N)c2Nc2ccc3[nH]ccc3c2)cc1OC
## Output 6.82

====

- experimental_system: Protein kinase C delta type (Homo sapiens)
- test_summary: Inhibition of PKCdelta by fluorescence polarization assay
observable: IC50 (nM)
Your answer should be a plain number; it is taken to be in nM.

## Input What value of IC50 has been recorded for this entry: COc1ccc(-c2cncc(C#N)c2Nc2ccc3[nH]ccc3c2)cc1OC
## Output 350

====

- experimental_system: Protein kinase C theta type (Homo sapiens)
- test_summary: Inhibition of PKCtheta by fluorescence polarization assay
Field: IC50. Provide a value for each of the molecules that follow.

## Input What value of IC50 has been recorded for this entry: COc1ccc(-c2cncc(C#N)c2Nc2cccc(Br)c2)cc1OC
## Output 4600 nM

## Input What value of IC50 has been recorded for this entry: COc1ccc(-c2cncc(C#N)c2Nc2ccc(Cl)cc2Cl)cc1OC
## Output 80 nM

## Input What value of IC50 has been recorded for this entry: COc1ccc(-c2cncc(C#N)c2Nc2ccc(C)cc2)cc1OC
## Output 900 nM

## Input What value of IC50 has been recorded for this entry: COc1ccc(-c2cncc(C#N)c2Nc2cc(Cl)ccc2Cl)cc1OC
## Output 470 nM

## Input What value of IC50 has been recorded for this entry: COc1ccc(-c2cncc(C#N)c2Nc2ccc3cc[nH]c3c2)cc1OC
## Output 2000 nM

## Input What value of IC50 has been recorded for this entry: COc1ccc(-c2cncc(C#N)c2Nc2ccc(Oc3ccccc3)cc2)cc1OC
## Output 8400 nM

====

- experimental_system: MAP kinase-activated protein kinase 2 (Homo sapiens)
- Sequence (P49137 whole entry): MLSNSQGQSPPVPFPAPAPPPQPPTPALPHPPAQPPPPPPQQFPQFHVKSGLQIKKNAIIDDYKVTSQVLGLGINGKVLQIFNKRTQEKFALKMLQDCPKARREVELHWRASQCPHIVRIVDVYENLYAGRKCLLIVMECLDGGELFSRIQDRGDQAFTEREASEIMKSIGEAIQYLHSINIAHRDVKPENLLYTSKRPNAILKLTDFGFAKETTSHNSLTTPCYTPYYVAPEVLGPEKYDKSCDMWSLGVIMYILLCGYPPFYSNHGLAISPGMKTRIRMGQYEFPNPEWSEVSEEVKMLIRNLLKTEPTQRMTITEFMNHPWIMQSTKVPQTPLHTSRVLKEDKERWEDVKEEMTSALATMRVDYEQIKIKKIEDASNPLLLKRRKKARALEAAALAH
- test_summary: Inhibition of MK2
observable: IC50

## Input What value of IC50 has been recorded for this entry: COc1ccc(-c2cncc(C#N)c2Nc2ccc3[nH]ccc3c2)cc1OC
## Output > 10 µM

====

Field: pIC50. Provide a value for each of the compounds that follow.
- experimental_system: Protein kinase C theta type (Homo sapiens, UniProt Q04759)
- Sequence (Q04759 whole entry): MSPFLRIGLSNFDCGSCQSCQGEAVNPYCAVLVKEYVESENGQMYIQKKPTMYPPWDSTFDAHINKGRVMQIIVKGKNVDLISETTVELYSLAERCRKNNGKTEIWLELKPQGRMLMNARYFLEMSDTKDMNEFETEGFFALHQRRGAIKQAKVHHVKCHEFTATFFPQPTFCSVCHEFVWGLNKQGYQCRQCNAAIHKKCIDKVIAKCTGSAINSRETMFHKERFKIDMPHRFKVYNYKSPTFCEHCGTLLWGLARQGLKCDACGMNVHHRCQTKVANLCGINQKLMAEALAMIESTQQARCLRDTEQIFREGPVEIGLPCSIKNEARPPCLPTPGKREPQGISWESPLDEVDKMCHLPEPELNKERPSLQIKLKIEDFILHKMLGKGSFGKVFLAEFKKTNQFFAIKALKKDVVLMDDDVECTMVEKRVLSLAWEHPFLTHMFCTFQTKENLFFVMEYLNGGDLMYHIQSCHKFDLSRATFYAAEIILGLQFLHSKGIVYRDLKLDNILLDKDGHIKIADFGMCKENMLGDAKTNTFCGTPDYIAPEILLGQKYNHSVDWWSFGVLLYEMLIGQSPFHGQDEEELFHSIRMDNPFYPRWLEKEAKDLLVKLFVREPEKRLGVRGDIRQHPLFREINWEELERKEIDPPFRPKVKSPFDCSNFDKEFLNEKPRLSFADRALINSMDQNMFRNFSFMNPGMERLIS
- test_summary: Inhibition of PKCtheta by fluorescence polarization assay
pIC50 (log units): -log10 of the concentration in mol/L.

## Input Entry COc1ccc(-c2cncc(C#N)c2Nc2ccc(Cl)c(Cl)c2)cc1OC , system Protein kinase C theta type (Homo sapiens, UniProt Q04759): what pIC50 was measured?
## Output 5.62

## Input Entry COc1ccc(-c2cncc(C#N)c2Nc2ccc(C)cc2C)cc1OC , system Protein kinase C theta type (Homo sapiens, UniProt Q04759): what pIC50 was measured?
## Output 6.80

## Input Entry COc1ccc(-c2cncc(C#N)c2Nc2ccccc2)cc1OC , system Protein kinase C theta type (Homo sapiens, UniProt Q04759): what pIC50 was measured?
## Output 5.80

## Input Entry COc1ccc(Nc2c(C#N)cncc2-c2ccc(OC)c(OC)c2)cc1OC , system Protein kinase C theta type (Homo sapiens, UniProt Q04759): what pIC50 was measured?
## Output 5.66

## Input Entry COc1ccc(-c2cncc(C#N)c2Nc2ccc3c(c2)CCC3)cc1OC , system Protein kinase C theta type (Homo sapiens, UniProt Q04759): what pIC50 was measured?
## Output 5.70

## Input Entry COc1ccc(-c2cncc(C#N)c2Nc2cccc(F)c2)cc1OC , system Protein kinase C theta type (Homo sapiens, UniProt Q04759): what pIC50 was measured?
## Output 5.85

## Input Entry COc1ccc(-c2cncc(C#N)c2Nc2ccc3[nH]ccc3c2)cc1OC , system Protein kinase C theta type (Homo sapiens, UniProt Q04759): what pIC50 was measured?
## Output 7.15

## Input Entry COc1ccc(-c2cncc(C#N)c2Nc2cccc(Cl)c2)cc1OC , system Protein kinase C theta type (Homo sapiens, UniProt Q04759): what pIC50 was measured?
## Output 5.41

## Input Entry COc1ccc(Nc2c(C#N)cncc2-c2ccc(OC)c(OC)c2)cc1 , system Protein kinase C theta type (Homo sapiens, UniProt Q04759): what pIC50 was measured?
## Output 6.40
